Test system: K-562
Assay: Cell proliferation inhibition (CellTiter-Glo), K-562 cells
Assay type: cell-based
Settings: Homo sapiens, K562, 96 h; K-562 (BCR-ABL), Day 4; read-out: K-562 IC50 μM (Day 4)
Known IC50 of a selection of compounds

The examples below pair each entry with its known result.
| compound | IC50 |
| --- | --- |
| C=CC(=O)N1CCCC(N2CCC(S(=O)(=O)Nc3ccc(-c4cc5c(N6CCOCC6)ncnc5[nH]4)cc3)C2)C1 (stereo not drawn) [Compound B0700-611] | > 10 µM |
| C=CC(=O)N[C@@H]1CCCN(c2cccc(CS(=O)(=O)Nc3ccc(-c4cc5c(N6CCOCC6)ncnc5[nH]4)cc3)c2)C1 [Compound B0700-539] | > 10 µM |

Q: Dear colleague, I am looking for the recorded IC50 of the following compound: Cc1cc(C)n2c1C=C1C=CC(CCC(=O)NCCCCN(C)C/C=C/C(=O)Nc3ccc(CC(=O)Nc4ccc(-c5cc6c(N7CCOCC7)ncnc6[nH]5)cc4)cc3)=[N+]1[B-]2(F)F [Compound B0700-504]
Result: > 10 µM
